The reported measurements were obtained from PubChem BioAssay (NCATS).

experiment: qHTS for inhibitors of Rabies Virus screened against the NCATS CANVASS Library (AID 1347402); details: Rabies virus infection cell assay; series mostly up to 45.9 µM
Records with an inconclusive call do not appear. Active and inactive are the calls of the source. Calls follow the shape of the full dose curve.

MOLECULE	activity change, negative = inhibition
C=CC(C)(C)[C@@]12C[C@H]3C(=O)N/C(=C\c4cnc[nH]4)C(=O)N3[C@@H]1Nc1ccccc12	inactive
O=C1OC(CCO)c2cccc(O)c21 (centres undefined)	inactive
CO[C@H]([C@@H](C)[C@H]1O[C@]1(C)C[C@H](C)/C=C/C=C(\C)[C@H]1O[C@@H](CC(=O)O)CC[C@@H]1C)[C@@H](C)O	inactive
COC1C(C)OC(OCC23C[C@@H]4[C@H](C)CC[C@H]4C4(C=O)CC2C=C(C(C)C)C34C(=O)O)[C@@H](O)[C@H]1O (some centres undefined)	inactive
Cc1cc(O)cc2c1C(=O)c1c(O)cc(O)cc1C2=O	inactive
COc1cc2c(cc1OC)[C@@H](c1ccc3c(c1)OCO3)C(C)[C@@H](C)C2=O (some centres undefined)	inactive
CO[C@@H]1[C@H](O)[C@@H](C)O[C@@H](OC[C@@H]2C(C)OC(=O)/C=C/[C@H](C)C(O[C@@H]3O[C@H](C)CC4(OC(=O)O[C@@H]4C)C3O)[C@@H](C)CC(C)C(=O)/C=C/[C@H]3OC23)[C@@H]1OC (some centres undefined)	inactive
O=C(O)[C@@]12COC3(O)C1CCN1CC[C@H]3[C@@H]1c1c2[nH]c2ccccc12	inactive
COc1ccc(-c2oc3cc(OC)cc(OC)c3c(=O)c2O)cc1	inactive
C[C@@H](O)[C@H]1OC(=O)C=C2[C@]3(C)[C@H]4[C@H](OC(=O)[C@@]4(C)[C@@H](O)[C@H]4O[C@H]43)[C@H]3O[C@@]231	inactive
CS/C=C/C(N)=O	inactive
CC[C@H](O)CCCCC[C@@H]1NC(=O)[C@H]2CCCCN2C(=O)[C@H]([C@H](C)CC)NC(=O)[C@H](Cc2cn(OC)c3ccccc23)NC1=O	inactive
COc1cc2c(cc1OC)[C@@H](c1ccc3c(c1)OCO3)C(C)C(C)C2=O (some centres undefined)	inactive
C[C@@H]1C(=O)[C@]23CC[C@H]1C[C@]21O[C@H]2C(C)(C)C=CC(=O)[C@]23COC1=O	inactive
